Provenance of the data: the supplement of paper PMC7125110

B1: glmS ribozyme (parent)
chain: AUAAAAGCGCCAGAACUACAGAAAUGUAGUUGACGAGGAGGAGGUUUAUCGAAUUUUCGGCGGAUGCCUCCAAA

Variants of: B1
EXPERIMENTAL DETAILS: self-cleavage kobs at 640 uM GlcN6P; higher = faster cleavage; RNA array
EXPERIMENTAL CONDITIONS: with glucosamine-6-phosphate
Variants at the floor of the assay were thinned out.
Field: self-cleavage kobs at 640 uM GlcN6P. Provide a value for each of the variants that follow.
Please give a number only; it is taken to be in s⁻¹.

GET /value?item= AUAAAAGCGCCAGAACUACAGAAAUGUAGUUGACGAGUAGGAGGUUUAUGGAAUUUUCGGCGGGUGCCUCCAAA [G38U C50G A64G] &field=self-cleavage kobs at 640 uM GlcN6P returns 6.44e-05

GET /value?item= AUAAAAGCGCCAAAACUACAGAAAUGUAGUUGACGAGGAGGAGGUUUAUCGAAUCUUCGGCGGAUGCCUCCAAA [G13A U55C] &field=self-cleavage kobs at 640 uM GlcN6P returns 0.000123

GET /value?item= AUAAAAGCGCCAGAACUACAGAAAUGUAGUUCACGAGGAGGAGGUUUAUCGAAUUUUCGGCGGAUGCCGCCAAA [G32C U69G] &field=self-cleavage kobs at 640 uM GlcN6P returns 0.000383

GET /value?item= AUAAAAGCGCCAGAACUACAGAAAUGUACUUGACGAGGAGGAGGUUUAUCGAAUUUUCGGCGGAUGCCUACAAA [G29C C70A] &field=self-cleavage kobs at 640 uM GlcN6P returns 5.19e-05

GET /value?item= AUAAAAGCGCCAGAACUACAGAAAUGUAGUUGACGAGGGGGAGGAUUAUCGAAUUUUCGGCGGAUGCCUCCAAA [A39G U45A] &field=self-cleavage kobs at 640 uM GlcN6P returns 0.0157

GET /value?item= AUAAAAGCGCCAGAACUACAGAAAUGUAAUUGACGAGGAGGAGGUUUAUCGAUUUUUCGGCGGAUGCCUCCAAA [G29A A53U] &field=self-cleavage kobs at 640 uM GlcN6P returns 0.000595

GET /value?item= AUAAAAGCGCCAGAACUACAGAAAUGUAGGUGAUAAGGAGGAGGUUUAUCGAAUUUUCGGCGGAUGCAUCCAAA [U30G C34U G35A C68A] &field=self-cleavage kobs at 640 uM GlcN6P returns 0.00169

GET /value?item= AUAAAAGCGCCAUAAUUACAGAAAUGUAAUUGACGAGGAGGAGGUUUAUCGAAUUUUCGGCGGAUGCCUCCAAA [G13U C16U G29A] &field=self-cleavage kobs at 640 uM GlcN6P returns 0.000601

GET /value?item= AUAAAAGCGCCAGAACUACAGAAAUGUAGUUGACGAGGAGGAGGUUUAUCUAAUUUUCGGCGGAUGCGUCCAAA [G51U C68G] &field=self-cleavage kobs at 640 uM GlcN6P returns 5.2e-05

GET /value?item= AUAAAAGCGCCUGAACUACAGAAAUGUAGUUGACGAGGAGGAGGGUUAUCGAAUUUUCGGCGGAUGCCUCCAAA [A12U U45G] &field=self-cleavage kobs at 640 uM GlcN6P returns 0.00546

GET /value?item= AUAAAAGCGCCAGUACUACAGAAAUGUAGUUGACGAGGAGGAGGGUUAUCGAAUUUUCGGCGGAUGCUUCCAAA [A14U U45G C68U] &field=self-cleavage kobs at 640 uM GlcN6P returns 4.96e-05

GET /value?item= AUAAAAGCGCCAGACCUACAGAAAUGUAGUUAACGAGGAGGAGGUUUAUCGAAUAUUCGGCGGAUGCCUCCAAA [A15C G32A U55A] &field=self-cleavage kobs at 640 uM GlcN6P returns 0.000233

GET /value?item= AUAAAAGCGCUAGGACUACAGAAAUGUAGUUGACGAGGAGGAGGUUUAUCGAAUUUUCGGCGGAUGCCUCCAAA [C11U A14G] &field=self-cleavage kobs at 640 uM GlcN6P returns 0.00207

GET /value?item= AUAAAAGCGCCAGUACUACAGAAAUGUAGUUGACGAGGAGGAGGUUUAUCGAAUUCUCGGCGGAUGCCUCCAAA [A14U U56C] &field=self-cleavage kobs at 640 uM GlcN6P returns 0.000234

GET /value?item= AUAAAAGCGCCAGUACUACAGAAAUGUAGUUGACGAGGAGGAGGUUUAUGGAAUUUUCGGCAGAUGCCUCCAAA [A14U C50G G62A] &field=self-cleavage kobs at 640 uM GlcN6P returns 0.000193

GET /value?item= AUAAAAGCGCCCGAACUACAGAAAUGUAGUUGACGAGGAGGAGGUUUAUCGAAUUUUCGGCGGAUGCCUUUAAA [A12C C70U C71U] &field=self-cleavage kobs at 640 uM GlcN6P returns 6.04e-05

GET /value?item= AUAAAAGCGCCAUAACUACAGAAAUGUAGUUGACGAGGAGGAGGUUUAUCGAUUUUUCGGCGGAUGCCUCCAAA [G13U A53U] &field=self-cleavage kobs at 640 uM GlcN6P returns 0.000213

GET /value?item= AUAAAAGCGCCAGAACUACAGAAAUGUAGUUGACGAGGAUGAGGUUUAUCGAAUUUUCGGCGGAGGCCUCCAAA [G40U U65G] &field=self-cleavage kobs at 640 uM GlcN6P returns 0.000417

GET /value?item= AUAAAAGCGCCAGAAUUACAGAAAUGUAGUUGACGAGGAGGAGGUUUAUCGAAUUUUCGGCGGAAGCCACCAAA [C16U U65A U69A] &field=self-cleavage kobs at 640 uM GlcN6P returns 0.000105

GET /value?item= AUAAAAGCGCCAGAACUACAGAAAUGUAGUUGACGAGGAGGAGGUUUAUCGAAUGUUCGGCGGAUGCCGCCAAA [U55G U69G] &field=self-cleavage kobs at 640 uM GlcN6P returns 8.9e-05

GET /value?item= AUAAAAGCGCCAGAACUACAGAAAUGUAGUUGACGAGGAGGAGGUUUAUCGAAUUUUUGGCGGAUGCGUCCAAA [C58U C68G] &field=self-cleavage kobs at 640 uM GlcN6P returns 0.000137

GET /value?item= AUAAAAGCGCCAGAACUACAGAAAUGUAGUUGACGAGGAGGAGGUAUAUCGAAUUUUCGGCGGAUGCGUCGAAA [U46A C68G C71G] &field=self-cleavage kobs at 640 uM GlcN6P returns 0.00075

GET /value?item= AUAAAAGCGCCAGAACUACAGAAAUGUAGUUGACGAGGAGGAGGUUUAUCGAAUUUGCGGCGGAUGCAUCCAAA [U57G C68A] &field=self-cleavage kobs at 640 uM GlcN6P returns 3.37e-05

GET /value?item= AUAAAAGCGCCACAAAUACAGAAAUGUAGUUGACGAGGAGGAGGUUUAUCGAAUUUUCGGCGGAUGCCUCCAAA [G13C C16A] &field=self-cleavage kobs at 640 uM GlcN6P returns 4.82e-05

GET /value?item= AUAAAAGCGCCCGAACUACAGAAAUGUAGUUGACGAGGAGGAGAUUUAUCGAUUUUUCGGCGGAUGCCUCCAAA [A12C G44A A53U] &field=self-cleavage kobs at 640 uM GlcN6P returns 5.92e-05

GET /value?item= AUAAAAGCGCCAGAUCUACAGAAAUGUAGUUGACGAGGAAGAGGUUUAUCGAAUUUUCGGCGGAUGCCUCCAAA [A15U G40A] &field=self-cleavage kobs at 640 uM GlcN6P returns 0.000282

GET /value?item= AUAAAAGCGCCAGAACUACAGAAAUGUAGUUGACGAGGAGGAGGUUUAUCGAAUUUUCGGCGGGUGCCUCGAAA [A64G C71G] &field=self-cleavage kobs at 640 uM GlcN6P returns 0.000495

GET /value?item= AUAAAAGCGCCAGAAAUACAGAAAUGUAGUGGACGAGGAGGAGGUUUAUCGAAUUUUCGGCGGAUGCCUCCAAA [C16A U31G] &field=self-cleavage kobs at 640 uM GlcN6P returns 9.42e-05

GET /value?item= AUAAAAGCGCCAGAACUACAGAAAUGUAGUUGACGAGGAGGAGGUUUAUCGAAUGUUCGGCGGAUGCCUACAAA [U55G C70A] &field=self-cleavage kobs at 640 uM GlcN6P returns 0.00015

GET /value?item= AUAAAAGCGCCAGAACUACAGAAAUGUAGUUGACGAGGAGGAGGUUUAUAGAAUUUUCGGCGGAUGCGUCCAAA [C50A C68G] &field=self-cleavage kobs at 640 uM GlcN6P returns 8.11e-05

GET /value?item= AUAAAAGCGCCAGAACUACAGAAAUGUAGUUGACGAGGAGGAGUAUUAUCGAAUUUUCGGCGGAUGCCUCCAAA [G44U U45A] &field=self-cleavage kobs at 640 uM GlcN6P returns 0.000175

GET /value?item= AUAAAAGCGCCAGAACUACAGAAAUGUAGUUAACGAGGAGGGGGUUUAUCGAAUUUUCGGCGGGUGCCUCCAAA [G32A A42G A64G] &field=self-cleavage kobs at 640 uM GlcN6P returns 0.000716

GET /value?item= AUAAAAGCGCCAGUACUACAGAAAUGUAGUUGACGAGGAGGAGGUUUAUCGAAUUUUCGGCGGAUUCCUCCAAA [A14U G66U] &field=self-cleavage kobs at 640 uM GlcN6P returns 6.34e-05

GET /value?item= AUAAAGGCGCCAGAACUACAGAAAUGUAGUUGACGAGGAGGAGGUUUAUCGAAUUUUCGGCGGAUGCUUCCAAA [A6G C68U] &field=self-cleavage kobs at 640 uM GlcN6P returns 5.56e-05
